- testedSystem: 11β-HSD1 (Homo sapiens, UniProt P28845)
- Construct: detecting cortisol generated from cortisterone by human liver microsomes; from tissue; host or cells: human liver microsomes
- Sequence (P28845 whole entry): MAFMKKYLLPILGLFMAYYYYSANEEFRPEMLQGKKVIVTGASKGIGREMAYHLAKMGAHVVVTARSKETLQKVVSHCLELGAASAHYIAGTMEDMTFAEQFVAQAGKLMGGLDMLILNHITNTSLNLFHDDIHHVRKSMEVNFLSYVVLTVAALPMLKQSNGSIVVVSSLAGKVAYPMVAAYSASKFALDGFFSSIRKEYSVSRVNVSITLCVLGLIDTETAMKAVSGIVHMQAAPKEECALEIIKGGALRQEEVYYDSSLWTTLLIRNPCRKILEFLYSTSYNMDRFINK
- testName: In vitro inhibition of 11β-HSD1, HTRF detection of cortisol generated from cortisone by human liver microsomes
- Assay type: biochemical
- reportedConditions: 11β-HSD IC50 (nM), 1 hour at 37° C., pH 6.0, NADPH 200 μM, cortisone 80 nM, inhibition relative to carbenoxolone signal
measureName: IC50 (nM)

[
  {
    "compound": "Cn1cnc2cc3c(cc21)[C@]1(C)CCN(C(=O)c2ccc4nc[nH]c4c2)[C@H](C3)C1(C)C",
    "measureName": "IC50",
    "observedValue": 204
  },
  {
    "compound": "CC1(C)[C@H]2Cc3ccccc3[C@]1(C)CCN2C(=O)c1cccc(O)c1",
    "measureName": "IC50",
    "observedValue": 446
  },
  {
    "compound": "CC1(C)[C@H]2Cc3c(O)cccc3[C@]1(C)CCN2C(=O)c1c[nH]c2ccc(Cl)cc12",
    "measureName": "IC50",
    "observedValue": 781
  },
  {
    "compound": "CC12CCN(C(=O)c3ccc4nc[nH]c4c3)C(Cc3ccc(O)cc31)C2 (stereo not shown)",
    "measureName": "IC50",
    "observedValue": 629
  }
]

Reference source: patent US8859580B2
